protocol: T. gondii ME49Luc in HeLa cells, luciferase assay, 72 h, no IFN-y (AID 1259421)
experimentalContext: active compounds read low, concentration not given here
About 610 (9.5%) of roughly 6,400 compounds were called active. The sample as a whole holds a higher share of actives than the screen did. Where a SMILES comes first, the peptide text is derived from it.
Catalogue of activity change, negative = inhibition readings, one per entry.

{"compound": "COc1cccc(O)c1O", "activity change, negative = inhibition [%]": -4.12}
{"compound": "C[C@H]1CN(C[C@H](Cc2ccccc2)C(=O)NCC(=O)O)CC[C@@]1(C)c1cccc(O)c1", "activity change, negative = inhibition [%]": 4.96}
{"compound": "CC(C)c1nc(CN(C)C(=O)N[C@@H](CCN2CCOCC2)C(=O)N[C@H](CC[C@H](Cc2ccccc2)NC(=O)OCc2cncs2)Cc2ccccc2)cs1", "activity change, negative = inhibition [%]": -16.7}
{"compound": "CN1CCc2cc3c(cc2C(=O)Cc2ccc4c(c2C1)OCO4)OCO3", "activity change, negative = inhibition [%]": 7.67}
{"compound": "COc1ccc(C[C@H](NC(=O)[C@H](C)NC(=O)CN2CCOCC2)C(=O)N[C@@H](Cc2ccccc2)C(=O)[C@]2(C)CO2)cc1", "activity change, negative = inhibition [%]": -76}
{"compound": "CC(=O)N[C@@H](Cc1ccccc1)C(=O)O", "activity change, negative = inhibition [%]": 16.5}
{"compound": "O=C(Cc1ccc(-c2ccc(OCCN3CCOCC3)cc2)cn1)NCc1ccccc1", "activity change, negative = inhibition [%]": -55.5}
{"compound": "CN1CCN(S(=O)(=O)c2ccc(-c3cnc(N)c(C(=O)Nc4cccnc4)n3)cc2)CC1", "activity change, negative = inhibition [%]": -77.6}
{"compound": "O=C(O)[C@H](O)[C@@H](O)[C@H](O[C@@H]1O[C@H](CO)[C@H](O)[C@H](O)[C@H]1O)[C@H](O)CO", "activity change, negative = inhibition [%]": 11.1}
{"compound": "C=CC(=O)N1CCCCC1", "activity change, negative = inhibition [%]": 4.09}
{"compound": "CN(C)CC[C@H](CSc1ccccc1)Nc1ccc(S(=O)(=O)NC(=O)c2ccc(N3CCN(Cc4ccccc4-c4ccc(Cl)cc4)CC3)cc2)cc1[N+](=O)[O-]", "activity change, negative = inhibition [%]": -28.3}
{"compound": "O=C(c1ccc(C(=O)N2CCC(N3CCCC3)CC2)c(Nc2ccccc2)c1)N1CCC(N2CCCC2)CC1", "activity change, negative = inhibition [%]": -4.76}
{"compound": "COC[C@H](NC(=O)c1cnc(C)s1)C(=O)N[C@@H](COC)C(=O)N[C@@H](Cc1ccccc1)C(=O)C1(C)CO1 (some centres undefined)", "activity change, negative = inhibition [%]": -88.8}
{"compound": "CC(C)C1C2CCC(C2)C1N (centres undefined)", "activity change, negative = inhibition [%]": -31.8}
{"compound": "CS(=O)(=O)c1ccc(-c2cnc(N)c(C(=O)Nc3ccccc3)n2)cc1", "activity change, negative = inhibition [%]": -81.9}
{"compound": "OC(CCl)CN1CC[N+]2(CC1)CC[N+]1(CCN(CC(O)CCl)CC1)CC2 (centres undefined)", "activity change, negative = inhibition [%]": 9.78}
{"compound": "CC(=O)NC(Cc1ccccc1)C(=O)O (centres undefined)", "activity change, negative = inhibition [%]": 20.2}
{"compound": "O=C(C(c1ccccc1)c1ccccc1)N1CCN(CC(O)COc2cccc3ncccc23)CC1 (centres undefined)", "activity change, negative = inhibition [%]": 10.1}
{"compound": "COC(=O)[C@H](Cc1ccccc1)NC(=O)[C@@H](N)CC(=O)O (H-Asp-Phe-OMe)", "activity change, negative = inhibition [%]": 0.919}
